experiment: Human HepG2 cell viability assay in 384 well format; assay type: toxicity, cell-based; set-up: dose 125 nL, time 70.5 hour; concentration not given beside the values; details: HepG2 cells, read-out: Inhibition
OBSERVATION TYPE: cytotoxicity at 70.5 h (%)

COc1ccccc1CC(=O)N1CCC(NCc2ccncc2)CC1 :: -1.58
COCCN1CCN(CC(=O)N(C)Cc2ccsc2)CC1 :: -6.03
COc1ncc(NCc2ccc(C#N)cc2)cc1C(N)=O :: -4.6

###

assay: Human HepG2 cell viability assay in 384 well format; format: toxicity, cell-based; parameters: dose 125 nL, time 70.5 hour; concentration not given beside the values; settings: HepG2 cells, read-out: Inhibition
OBSERVATION TYPE: cytotoxicity at 70.5 h (%)

CN(Cc1cccnc1)C1COC2(CCN(Cc3nccs3)CC2)C1 (stereo unspecified) :: -11
COCCOc1ccccc1NC(C)C(=O)NC(=O)NC(C)(C)C (stereo unspecified) :: -15.9
COCc1nccc(C2CCCN(Cc3cccc(F)c3)C2)n1 (stereo unspecified) :: 0.742
Cc1nc[nH]c1CN1CCC2(CC1)CC(Nc1ncccn1)CO2 (stereo unspecified) :: -94.8
CC(NC(=O)N1CCSC(C)(C)C1)c1noc(-c2ccccc2)n1 (stereo unspecified) :: -0.307
CCOc1ccccc1CC(=O)N1C[C@@H](C(=O)O)[C@H](c2ccncc2)C1 :: 37.4

Reference source: ChEMBL document CHEMBL3507680
